test system: Staphylococcus aureus (MSSA); conditions: 24 h
Starred links: 1 amine or outer side, 2 acyl side, 3 side chain; linkers in the order of their positions; H or OH if unused. Positions of bridges follow the written chain, without caps; N, C: chain ends. Non-standard residues stand in square brackets, D forms with d. Residues, ends and D or L forms follow the SMILES beside them. ξ: configuration not given here. *: point of attachment. X15 = CC(NC(=O)CCNC(N)=O)C(N[*:1])C(=O)[*:2]; ξAbu(βξ-NH2) = CC(N[*:3])C(N[*:1])C(=O)[*:2]; Pentadecanoyl = CCCCCCCCCCCCCCC(=O)*; ξAsp(βξ-Me) = CC(C(=O)O)C(N)C(=O)O; Pip = O=C(O)[CH]1CCCCN1
parameterMeasured: MIC (µg/mL)

compound	parameterMeasured	endpointResult
CCCCCCCCCCCCCCC(=O)NC(CC(=O)O)C(=O)NC1C(=O)N2CCCCC2C(=O)NC(C(C)C(=O)O)C(=O)NC(CC(=O)O)C(=O)NCC(=O)NC(CC(=O)O)C(=O)NCC(=O)NC(C(C)NC(=O)CCNC(N)=O)C(=O)NC(C(C)C)C(=O)N2CCCC2C(=O)NC1C (stereo not drawn) [Compound 212, C15-Amphomycin-9-(Carbamoyl-β-Ala)] (Pentadecanoyl-D[ξAbu(βξ-NH2)][Pip][ξAsp(βξ-Me)]DGDG[X15]VP; lactam 2-C; configuration not given here)	MIC	1
